# Test system: OVCAR-8
# ASSAY COMMENT: NCI tumour cell line growth inhibition, 48 h
Activity calls are given as the source filed them. Rule as the data show it: active = GI50 up to about 1.1 µM and inactive = higher.
GI50 values, listed per item

[
  {
    "MOLECULE": "Cc1ccc(NCc2nnc3c(-c4ccccc4)nc4ccccc4n23)cc1",
    "GI50": "24 µM (inactive)"
  },
  {
    "MOLECULE": "Cc1ccnc2c1C(=O)C1=C(OC(C)(C)CC1O)C2=O (stereo not drawn)",
    "GI50": "2.83 µM (inactive)"
  },
  {
    "MOLECULE": "COc1ccc(OC)c(-c2cc(C(=O)O)c3cc4ccccc4cc3n2)c1",
    "GI50": "> 100 µM (inactive)"
  }
]
